- System: S. aureus ATCC 9144
- Format: cell-based, Staphylococcus aureus
- EXPERIMENTAL_CONDITIONS: ATCC 9144, 18 h
Where a SMILES comes first, the peptide text is derived from it. The star is where a group is joined. Benzoyl(4-Ph) = O=C(c1ccc(-c2ccccc2)cc1)*; Butanoyl(4-Ph) = O=C(CCCc1ccccc1)*; Octanoyl = CCCCCCCC(=O)*
The following compounds are listed with their measured MIC S. aureus 9144 values.
MEASUREMENT_NAME: MIC S. aureus 9144 (µg/mL)

>  <COMPOUND>
CC[C@H](C)[C@H](NC(=O)[C@H](CCCNC(=N)N)NC(=O)[C@H](CCC(N)=O)NC(=O)[C@@H](NC(=O)[C@@H](NC(=O)[C@H](CCCNC(=N)N)NC(=O)[C@H](CCCCN)NC(=O)CCCc1ccccc1)[C@@H](C)CC)C(C)C)C(=O)N[C@@H](CCCCN)C(=O)N[C@@H](CC(=O)O)C(=O)N[C@@H](Cc1ccccc1)C(=O)N[C@@H](CC(C)C)C(=O)N[C@@H](CCCNC(=N)N)C(N)=O [XVIII, 4-Phenylbutanoic acid-KR12-NH2] ({Butanoyl(4-Ph)}-KRIVQRIKDFLR-NH2)

>  <MEASUREMENT_NAME>
MIC S. aureus 9144

>  <UNIT_NAME>
µg/mL

>  <QUANTITATIVE_READOUT>
8

$$$$
>  <COMPOUND>
CCCCCCCC(=O)NCCCC[C@H](N)C(=O)N[C@@H](CCCNC(=N)N)C(=O)N[C@H](C(=O)N[C@H](C(=O)N[C@@H](CCC(N)=O)C(=O)N[C@@H](CCCNC(=N)N)C(=O)N[C@H](C(=O)N[C@@H](CCCCN)C(=O)N[C@@H](CC(=O)O)C(=O)N[C@@H](Cc1ccccc1)C(=O)N[C@@H](CC(C)C)C(=O)N[C@@H](CCCNC(=N)N)C(N)=O)[C@@H](C)CC)C(C)C)[C@@H](C)CC [III, C8^ε-KR12-NH2] (H-K(Octanoyl)RIVQRIKDFLR-NH2)

>  <MEASUREMENT_NAME>
MIC S. aureus 9144

>  <UNIT_NAME>
µg/mL

>  <QUANTITATIVE_READOUT>
32

$$$$
>  <COMPOUND>
CCCCCCCC(=O)NCCCC[C@H](N)C(=O)N[C@@H](CCCCN)C(=O)N[C@@H](CCCNC(=N)N)C(=O)N[C@H](C(=O)N[C@H](C(=O)N[C@@H](CCC(N)=O)C(=O)N[C@@H](CCCNC(=N)N)C(=O)N[C@H](C(=O)N[C@@H](CCCCN)C(=O)N[C@@H](CC(=O)O)C(=O)N[C@@H](Cc1ccccc1)C(=O)N[C@@H](CC(C)C)C(=O)N[C@@H](CCCNC(=N)N)C(N)=O)[C@@H](C)CC)C(C)C)[C@@H](C)CC [V, C8^ε-Lys-KR12-NH2] (H-K(Octanoyl)KRIVQRIKDFLR-NH2)

>  <MEASUREMENT_NAME>
MIC S. aureus 9144

>  <UNIT_NAME>
µg/mL

>  <QUANTITATIVE_READOUT>
32

$$$$
>  <COMPOUND>
CCCCCCCC(=O)N[C@@H](CCCNC(=N)N)C(=O)N[C@@H](CC(C)C)C(=O)N[C@@H](Cc1ccccc1)C(=O)N[C@@H](CC(=O)O)C(=O)N[C@@H](CCCCN)C(=O)N[C@H](C(=O)N[C@@H](CCCNC(=N)N)C(=O)N[C@@H](CCC(N)=O)C(=O)N[C@H](C(=O)N[C@H](C(=O)N[C@@H](CCCNC(=N)N)C(=O)N[C@@H](CCCCN)C(N)=O)[C@@H](C)CC)C(C)C)[C@@H](C)CC [XII, C8^α-retro-KR12-NH2] (Octanoyl-RLFDKIRQVIRK-NH2)

>  <MEASUREMENT_NAME>
MIC S. aureus 9144

>  <UNIT_NAME>
µg/mL

>  <QUANTITATIVE_READOUT>
32

$$$$
>  <COMPOUND>
CCCCCCCC(=O)N[C@@H](CCCCN)C(=O)N[C@@H](CCCNC(=N)N)C(=O)N[C@H](C(=O)N[C@H](C(=O)N[C@@H](CCC(N)=O)C(=O)N[C@@H](CCCNC(=N)N)C(=O)N[C@H](C(=O)N[C@@H](CCCCN)C(=O)N[C@@H](CC(=O)O)C(=O)N[C@@H](Cc1ccccc1)C(=O)N[C@@H](CC(C)C)C(=O)N[C@@H](CCCNC(=N)N)C(N)=O)[C@@H](C)CC)C(C)C)[C@@H](C)CC [II, C8^α-KR12-NH2] (Octanoyl-KRIVQRIKDFLR-NH2)

>  <MEASUREMENT_NAME>
MIC S. aureus 9144

>  <UNIT_NAME>
µg/mL

>  <QUANTITATIVE_READOUT>
4

$$$$
>  <COMPOUND>
CC[C@H](C)[C@H](NC(=O)[C@H](CCCNC(=N)N)NC(=O)[C@H](CCC(N)=O)NC(=O)[C@@H](NC(=O)[C@@H](NC(=O)[C@H](CCCNC(=N)N)NC(=O)[C@H](CCCCN)NC(=O)c1ccc(-c2ccccc2)cc1)[C@@H](C)CC)C(C)C)C(=O)N[C@@H](CCCCN)C(=O)N[C@@H](CC(=O)O)C(=O)N[C@@H](Cc1ccccc1)C(=O)N[C@@H](CC(C)C)C(=O)N[C@@H](CCCNC(=N)N)C(N)=O [XXI, 4-Phenylbenzoic acid-KR12-NH2] ({Benzoyl(4-Ph)}-KRIVQRIKDFLR-NH2)

>  <MEASUREMENT_NAME>
MIC S. aureus 9144

>  <UNIT_NAME>
µg/mL

>  <QUANTITATIVE_READOUT>
4

$$$$

----------
- System: S. aureus ATCC 33591 (MRSA)
- Format: cell-based, Staphylococcus aureus
- EXPERIMENTAL_CONDITIONS: ATCC 33591, 18 h
Where a SMILES comes first, the peptide text is derived from it. The star is where a group is joined. Butanoyl(4-Ph) = O=C(CCCc1ccccc1)*; Octanoyl = CCCCCCCC(=O)*; X2 = O=C(C#Cc1ccccc1)*
compounds and their reported MIC S. aureus 33591

>  <COMPOUND>
CCCCCCCC(=O)NCCCC[C@H](NC(=O)[C@@H](NC(=O)[C@H](CCCNC(=N)N)NC(=O)[C@H](CCC(N)=O)NC(=O)[C@@H](NC(=O)[C@@H](NC(=O)[C@H](CCCNC(=N)N)NC(=O)[C@@H](N)CCCCN)[C@@H](C)CC)C(C)C)[C@@H](C)CC)C(=O)N[C@@H](CC(=O)O)C(=O)N[C@@H](Cc1ccccc1)C(=O)N[C@@H](CC(C)C)C(=O)N[C@@H](CCCNC(=N)N)C(N)=O [VIII, [Lys^ε(C8)]^8KR12-NH2] (H-KRIVQRIK(Octanoyl)DFLR-NH2)

>  <EXPERIMENTAL_TARGET>
S. aureus ATCC 33591 (MRSA)

>  <MIC S. aureus 33591 / µg/mL>
32

$$$$
>  <COMPOUND>
CC[C@H](C)[C@H](NC(=O)[C@H](CCCNC(=N)N)NC(=O)[C@H](CCC(N)=O)NC(=O)[C@@H](NC(=O)[C@@H](NC(=O)[C@H](CCCNC(=N)N)NC(=O)[C@H](CCCCN)NC(=O)CCCc1ccccc1)[C@@H](C)CC)C(C)C)C(=O)N[C@@H](CCCCN)C(=O)N[C@@H](CC(=O)O)C(=O)N[C@@H](Cc1ccccc1)C(=O)N[C@@H](CC(C)C)C(=O)N[C@@H](CCCNC(=N)N)C(N)=O [XVIII, 4-Phenylbutanoic acid-KR12-NH2] ({Butanoyl(4-Ph)}-KRIVQRIKDFLR-NH2)

>  <EXPERIMENTAL_TARGET>
S. aureus ATCC 33591 (MRSA)

>  <MIC S. aureus 33591 / µg/mL>
16

$$$$
>  <COMPOUND>
CCCCCCCC(=O)NCCCC[C@H](NC(=O)CCCCCCC)C(=O)N[C@@H](CCCNC(=N)N)C(=O)N[C@H](C(=O)N[C@H](C(=O)N[C@@H](CCC(N)=O)C(=O)N[C@@H](CCCNC(=N)N)C(=O)N[C@H](C(=O)N[C@@H](CCCCN)C(=O)N[C@@H](CC(=O)O)C(=O)N[C@@H](Cc1ccccc1)C(=O)N[C@@H](CC(C)C)C(=O)N[C@@H](CCCNC(=N)N)C(N)=O)[C@@H](C)CC)C(C)C)[C@@H](C)CC [IX, C8^α,C8^ε-KR12-NH2] (Octanoyl-K(Octanoyl)RIVQRIKDFLR-NH2)

>  <EXPERIMENTAL_TARGET>
S. aureus ATCC 33591 (MRSA)

>  <MIC S. aureus 33591 / µg/mL>
256

$$$$
>  <COMPOUND>
CCCCCCCC(=O)NCCCC[C@H](NC(=O)[C@H](CC(C)C)NC(=O)[C@H](Cc1ccccc1)NC(=O)[C@H](CC(=O)O)NC(=O)[C@H](CCCCN)NC(=O)[C@@H](NC(=O)[C@H](CCCNC(=N)N)NC(=O)[C@H](CCC(N)=O)NC(=O)[C@@H](NC(=O)[C@@H](NC(=O)[C@H](CCCNC(=N)N)NC(=O)[C@@H](N)CCCCN)[C@@H](C)CC)C(C)C)[C@@H](C)CC)C(N)=O [VII, [Lys^ε(C8)]^12KR12-NH2] (H-KRIVQRIKDFLK(Octanoyl)-NH2)

>  <EXPERIMENTAL_TARGET>
S. aureus ATCC 33591 (MRSA)

>  <MIC S. aureus 33591 / µg/mL>
512

$$$$
>  <COMPOUND>
CCCCCCCC(=O)NCCCC[C@H](N)C(=O)N[C@@H](CCCNC(=N)N)C(=O)N[C@H](C(=O)N[C@H](C(=O)N[C@@H](CCC(N)=O)C(=O)N[C@@H](CCCNC(=N)N)C(=O)N[C@H](C(=O)N[C@@H](CCCCN)C(=O)N[C@@H](CC(=O)O)C(=O)N[C@@H](Cc1ccccc1)C(=O)N[C@@H](CC(C)C)C(=O)N[C@@H](CCCNC(=N)N)C(N)=O)[C@@H](C)CC)C(C)C)[C@@H](C)CC [III, C8^ε-KR12-NH2] (H-K(Octanoyl)RIVQRIKDFLR-NH2)

>  <EXPERIMENTAL_TARGET>
S. aureus ATCC 33591 (MRSA)

>  <MIC S. aureus 33591 / µg/mL>
64

$$$$
>  <COMPOUND>
CC[C@H](C)[C@H](NC(=O)[C@H](CCCNC(=N)N)NC(=O)[C@H](CCC(N)=O)NC(=O)[C@@H](NC(=O)[C@@H](NC(=O)[C@H](CCCNC(=N)N)NC(=O)[C@H](CCCCN)NC(=O)C#Cc1ccccc1)[C@@H](C)CC)C(C)C)C(=O)N[C@@H](CCCCN)C(=O)N[C@@H](CC(=O)O)C(=O)N[C@@H](Cc1ccccc1)C(=O)N[C@@H](CC(C)C)C(=O)N[C@@H](CCCNC(=N)N)C(N)=O [XX, Phenylpropiolic acid-KR12-NH2] (X2-KRIVQRIKDFLR-NH2)

>  <EXPERIMENTAL_TARGET>
S. aureus ATCC 33591 (MRSA)

>  <MIC S. aureus 33591 / µg/mL>
32

$$$$
